assay: Drug level in brain of rat chronic constriction injury model at 20 mg/kg, po bid for 8 days measured on last day; assay type: ADME, organism-based; set-up: dose 20 mg/kg, route oral

{"columns": ["structureSmilesString", "concentration at 192 h / µM"],
 "data": [
  ["CN1C(=O)CC[C@H]1C(=O)NCc1cccc(C(F)(F)F)c1Cl", 3.36]
]}

====

tested on: Plasma; assay: Drug level in rat plasma at 50 mg/kg, po; format: ADME, organism-based; parameters: dose 50 mg/kg, route oral; conditions: in vivo, read-out: Drug uptake

{"columns": ["compound", "scaleUnit", "concentration"],
 "data": [
  ["CN1C(=O)CC[C@H]1C(=O)NCc1cccc(C(F)(F)F)c1Cl [GSK1482160]", "µM", 12.9]
]}

====

test: Volume of distribution at steady state in rat at 1 mg/kg, iv for 1 hrs; type: ADME, organism-based; set-up: dose 1 mg/kg, route intravenous; conditions: in vivo, read-out: Vdss

{"columns": ["structureSmilesString", "Vd (L/kg)"],
 "data": [
  ["CN1C(=O)CC[C@H]1C(=O)NCc1cccc(C(F)(F)F)c1Cl", 1.1]
]}

====

assay: Tmax in rat at 3 mg/kg, po for 1 hrs; type: ADME, organism-based; set-up: dose 3 mg/kg, route oral; conditions: in vivo

{"columns": ["structureSmilesString", "Tmax"],
 "data": [
  ["CN1C(=O)CC[C@H]1C(=O)NCc1cccc(C(F)(F)F)c1Cl", "1 h"]
]}

====

Each record here notes measured IC50.
Target: P2X purinoceptor 7 (Rattus norvegicus, UniProt Q64663)
Sequence (Q64663 whole entry): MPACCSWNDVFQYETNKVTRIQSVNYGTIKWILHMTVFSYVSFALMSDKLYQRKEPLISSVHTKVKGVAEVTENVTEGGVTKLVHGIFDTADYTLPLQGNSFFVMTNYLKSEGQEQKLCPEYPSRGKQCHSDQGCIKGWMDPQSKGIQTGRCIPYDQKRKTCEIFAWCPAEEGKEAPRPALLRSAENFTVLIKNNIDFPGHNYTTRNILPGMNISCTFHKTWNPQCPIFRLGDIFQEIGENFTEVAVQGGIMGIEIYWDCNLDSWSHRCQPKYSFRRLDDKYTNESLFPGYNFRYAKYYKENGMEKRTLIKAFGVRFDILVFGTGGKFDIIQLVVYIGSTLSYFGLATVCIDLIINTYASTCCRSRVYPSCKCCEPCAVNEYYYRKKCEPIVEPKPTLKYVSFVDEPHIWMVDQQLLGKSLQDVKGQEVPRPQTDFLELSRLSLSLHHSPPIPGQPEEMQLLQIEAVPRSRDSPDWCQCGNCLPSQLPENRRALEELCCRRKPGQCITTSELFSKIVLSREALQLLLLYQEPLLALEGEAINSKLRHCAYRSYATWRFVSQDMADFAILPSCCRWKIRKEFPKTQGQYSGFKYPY

{"columns": ["compound", "boundOperator", "IC50 / nM"],
 "data": [
  ["CN(C(=O)c1cc(Cl)c(=O)n(Cc2c(Cl)cccc2Cl)c1)c1ccccc1", "=", 316],
  ["CC(C)N1C(=O)CCC1C(=O)NCc1ccc(F)cc1Cl (configuration not stated)", ">", 10000]
]}

====

system: Liver microsomes; assay: Intrinsic clearance in rat liver microsome; assay type: ADME

{"columns": ["structureSmilesString", "scaleUnit", "boundOperator", "CL"],
 "data": [
  ["CCN1C(=O)CC[C@H]1C(=O)NCc1ccc(F)cc1Cl", "mL/min/g", "<", 0.5],
  ["Cc1nn(-c2ccccc2)c(C)c1CC(=O)NCc1ccc(F)cc1Cl", "mL/min/g", "=", 46],
  ["Cc1n[nH]c(C)c1CC(=O)NCc1ccc(Cl)cc1Cl", "mL/min/g", "=", 1.3],
  ["CN(C(=O)c1cc(Cl)c(=O)n(Cc2c(Cl)cccc2Cl)c1)c1ccccc1", "mL/min/g", ">", 50],
  ["O=C(NCc1ccc(F)cc1Cl)[C@@H]1CCC(=O)N1C1CCC1", "mL/min/g", "=", 2.3]
]}
